SYSTEM TESTED: human A2a adenosine receptor (Homo sapiens (Human))
MEASURED ATTRIBUTE: IC50 (nM)

Please review the entries below; each comes with its answer.
>>> print(df.to_string())
                                   molecule  measured_attribute  measured
0  COc1cc2nc(N)n3nc([C@@H]4CCCN(c5cn(CS(C)(=O)=O)nc5C)C4)nc3c2cc1F                IC50       4.1
1  COc1cc(F)cc2c1nc(N)n1nc(C3CCC(C)N(c4cnn(CC(C)(C)O)c4)C3)nc21 (single isomer, unassigned) [Example 119]                IC50      51.6
2  Cc1cc(Cl)cc2c1nc(N)n1nc(C3CCCN(c4cnn(C)c4)C3)nc21 (single isomer, unassigned)                IC50       329
3  COc1cc2nc(N)n3nc([C@@H]4CCCN(c5cnn(CCCC(C)O)c5)C4)nc3c2cc1F (single isomer, unassigned)                IC50       7.8

I = COc1cc2nc(N)n3nc(C4CCCCN(c5cnn(CC(C)(C)O)c5)C4)nc3c2cc1F (single isomer, unassigned) [Example 61]
II = COc1cc2nc(N)n3nc([C@H]4CN(c5cn(CC(C)(C)O)nc5C)CCO4)nc3c2cc1F
Hi team, can someone confirm which has the larger IC50: I or II ? Thanks. Please respond with the label that marks your chosen entry.
I

I = COc1cc2nc(N)n3nc([C@@H]4CCCN(c5nc(C)n(CC(C)(C)O)n5)C4)nc3c2cc1F
II = COc1cc(F)cc2c1nc(N)n1nc([C@@H]3CCCN(c4cn(CC(C)(C)O)nc4C)C3)nc21
Hi team, can someone confirm which has the larger IC50: I or II ? Thanks. Please respond with the label that marks your chosen entry.
I

* * *

SYSTEM TESTED: human A2B receptors (Homo sapiens (Human), UniProt P29275)
Sequence (P29275 whole entry): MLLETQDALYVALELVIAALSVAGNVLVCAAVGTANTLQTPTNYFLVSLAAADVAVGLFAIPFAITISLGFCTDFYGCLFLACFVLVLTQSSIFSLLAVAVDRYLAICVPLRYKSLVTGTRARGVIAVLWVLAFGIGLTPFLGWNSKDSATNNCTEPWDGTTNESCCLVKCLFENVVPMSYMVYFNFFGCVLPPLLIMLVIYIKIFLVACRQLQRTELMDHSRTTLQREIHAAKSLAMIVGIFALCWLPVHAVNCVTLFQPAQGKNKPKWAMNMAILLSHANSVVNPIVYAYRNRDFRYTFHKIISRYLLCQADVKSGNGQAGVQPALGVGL
TEST: A2B antagonism in cAMP cell-based assay (LANCE cAMP, HEK293)
CONDITION SET: HEK293 cells expressing human A2B receptor
pIC50: −log10 of the molar value.
MEASURED ATTRIBUTE: pIC50

a = COc1cc2nc(N)n3nc(C4CC(C)CN(c5cnn(CC(C)(C)O)c5C)C4)nc3c2cc1F (single isomer, unassigned) [Example 275]
b = CC1CCC(c2nc3c4cc(F)cc(F)c4nc(N)n3n2)CN1c1cnn(CC(C)(O)CO)c1 (single isomer, unassigned) [Example 258]
c = CCC(C)(O)Cn1cc(N2CCC[C@@H](c3nc4c5cc(F)c(OC)cc5nc(N)n4n3)C2)cn1 (single isomer, unassigned) [Example 184]
d = Cc1nn(CC(C)(C)O)cc1N1CC(C)CC(c2nc3c4cc(F)cc(F)c4nc(N)n3n2)C1 (single isomer, unassigned) [Example 167]
Order these by pIC50, descending, and give the full ranking. Answer format: the labels, ordered as requested.
b, d, c, a
(b: 8.09, d: 7.34, c: 6.46, a: 5.61)

* * *

SYSTEM TESTED: human A2A receptors (Homo sapiens (Human), UniProt P29274)
Sequence (P29274 whole entry): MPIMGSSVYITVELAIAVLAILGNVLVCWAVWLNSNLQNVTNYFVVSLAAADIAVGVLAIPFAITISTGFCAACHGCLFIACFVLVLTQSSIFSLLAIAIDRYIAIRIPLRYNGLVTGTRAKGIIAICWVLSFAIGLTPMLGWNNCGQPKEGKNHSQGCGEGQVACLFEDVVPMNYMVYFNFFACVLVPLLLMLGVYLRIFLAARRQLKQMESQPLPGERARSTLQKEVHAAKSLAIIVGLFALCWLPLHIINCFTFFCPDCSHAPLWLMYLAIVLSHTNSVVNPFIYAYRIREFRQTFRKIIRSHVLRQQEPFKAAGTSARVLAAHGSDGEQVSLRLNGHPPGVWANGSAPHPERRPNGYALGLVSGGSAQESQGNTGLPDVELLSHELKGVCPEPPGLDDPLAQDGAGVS
TEST: A2A antagonism in cAMP cell-based assay (LANCE cAMP, HEK293)
CONDITION SET: HEK293 cells expressing human A2A receptor
MEASURED ATTRIBUTE: IC50 (nM)

Please review the entries below; each comes with its answer.
>>> df
                                   compound  measured_attribute  quantity_unit  measured
0  Cc1nn(CC(C)(C)O)cc1N1CC(C)CC(c2nc3c4cc(F)cc(F)c4nc(N)n3n2)C1 (single isomer, unassigned) [Example 168]                IC50             nM      23.9
1  COc1cc(F)cc2c1nc(N)n1nc([C@@H]3CCCN(c4cnn(C(C)(C)C(C)O)c4)C3)nc21 (single isomer, unassigned) [Example 244]                IC50             nM       0.9
2  COc1cc2nc(N)n3nc(C4CCC(C)N(c5cnn(C(C)(C)C(C)O)c5)C4)nc3c2cc1F (single isomer, unassigned) [Example 266]                IC50             nM      64.2
3  COc1cc(F)cc2c1nc(N)n1nc(C3CCC(C)N(c4cnn(C(C)(C)C(C)O)c4)C3)nc21 (single isomer, unassigned) [Example 268]                IC50             nM       0.7

I = CC1CCC(c2nc3c4cc(F)cc(F)c4nc(N)n3n2)CN1c1cnn(CC(C)(O)CO)c1 (single isomer, unassigned) [Example 256]
II = COc1cc2nc(N)n3nc(C4CC(C)CN(c5cnn(C(C)(C)CO)c5)C4)nc3c2cc1F (single isomer, unassigned) [Example 171]
III = COc1cc(F)cc2c1nc(N)n1nc(C3CC(C)CN(c4cnn(C(C)C(C)O)c4C)C3)nc21 (single isomer, unassigned) [Example 221]
Reorder: IC50, max to min. Answer format: the labels, ordered as requested.
I, II, III

P = COc1cc(F)cc2c1nc(N)n1nc([C@@H]3CCCN(c4cnn(C(C)C(C)O)c4)C3)nc21 (single isomer, unassigned) [Example 202]
Q = COc1cc(F)cc2c1nc(N)n1nc(C3CC(C)CN(c4cnn(C(C)C(C)O)c4C)C3)nc21 (single isomer, unassigned) [Example 222]
Hi team, can someone confirm which has the larger IC50: P or Q ? Thanks. Please respond with the label that marks your chosen entry.
Q
(Q: 34.6 nM, P: 1.4 nM)
